System: Wolbachia pipientis
test-summary: Anti-Wolbachia Cell-Based Screen
Format: functional
Design: scale not given: in the data most compounds retested in dose-response had high values
details: 5 µM
In all, about 48,000 compounds went through this assay and about 13,000 (27%) showed an effect of 50% or more. This is one part of the list.
Percent Effect for assorted compounds

{"compound": "COc1ccc2nc(C3CC3)cc(C(=O)NCC(=O)N(C)C)c2c1", "system": "Wolbachia pipientis", "unit-text": "%", "Percent Effect": -4.105}
{"compound": "CCCn1cc(-c2cc(C(=O)N(C)C)c3cccc(C)c3n2)cn1", "system": "Wolbachia pipientis", "unit-text": "%", "Percent Effect": 108.4}
{"compound": "COc1ccc2c(C(=O)N(C)C)cc(-c3cnc(N)nc3)nc2c1", "system": "Wolbachia pipientis", "unit-text": "%", "Percent Effect": -11.66}
{"compound": "Cc1cnccc1CN(C)C(=O)c1ccc(Cn2cnnn2)cc1", "system": "Wolbachia pipientis", "unit-text": "%", "Percent Effect": -17.07}
{"compound": "Cc1noc(CS(=O)(=O)c2cc(F)ccc2F)n1", "system": "Wolbachia pipientis", "unit-text": "%", "Percent Effect": 2.12}
{"compound": "Cc1nn(C)c(C)c1C1CCCN1CCOc1ccccc1C#N (stereo unspecified)", "system": "Wolbachia pipientis", "unit-text": "%", "Percent Effect": -7.684}
{"compound": "COc1ccc2c(c1)OCC(Cc1ccc(N(C)C)nc1)C2 (stereo unspecified)", "system": "Wolbachia pipientis", "unit-text": "%", "Percent Effect": -17.41}
{"compound": "CCCn1cc(-c2cc(C(=O)N(C)C)c3ccc(C)cc3n2)cn1", "system": "Wolbachia pipientis", "unit-text": "%", "Percent Effect": 103.4}
{"compound": "CS(=O)(=O)NCC1CCCN(C(=O)COCC(F)(F)F)C1 (stereo unspecified)", "system": "Wolbachia pipientis", "unit-text": "%", "Percent Effect": -5.002}
{"compound": "Cc1ccc2c(C(=O)N(C)C)cc(-c3cnn(CCO)c3)nc2c1C", "system": "Wolbachia pipientis", "unit-text": "%", "Percent Effect": 115.7}
{"compound": "CCn1ccc(C(=O)N(C)Cc2cnn(-c3cccc(OC)c3)c2)n1", "system": "Wolbachia pipientis", "unit-text": "%", "Percent Effect": -12.09}

Values compiled from ChEMBL document CHEMBL3988442.
